Please respond with reported lowest phenotypically active concentration for every item in the list.
System: A549-CANX-COX4
assayNotes: lowest phenotypically active concentration; higher = less potent
conditionDetails: treatment time: 24 h
Counter-ions that a name gives are not always drawn.
Form entry: value (µM) — number only.

The measured lowest phenotypically active concentration associated with "COc1ccc2c(c1)/C(=C/c1c[nH]cn1)C(=O)N2" reads 1

The measured lowest phenotypically active concentration associated with CN1C[C@H](C(=O)N[C@]2(C)O[C@@]3(O)[C@@H]4CCCN4C(=O)[C@H](Cc4ccccc4)N3C2=O)C=C2c3cccc4[nH]cc(c34)C[C@H]21 [ergotamine] reads 3

The measured lowest phenotypically active concentration associated with "COc1ccc(N(C(=O)Oc2c(C)cccc2C)c2ccnc(Nc3ccc(N4CCN(C)CC4)cc3)n2)c(OC)c1" reads 3

The measured lowest phenotypically active concentration associated with COc1ccc(CCN2CCC(Nc3nc4ccccc4n3Cc3ccc(F)cc3)CC2)cc1 [astemizole] reads 9

The measured lowest phenotypically active concentration associated with CC[C@@H](C(=O)[C@@H](C)[C@@H](O)[C@H](C)[C@@H]1O[C@@H]([C@@H](CC)C(=O)O)CC[C@@H]1C)[C@H]1O[C@]2(C=C[C@@H](O)[C@]3(CC[C@@](C)([C@H]4CC[C@](O)(CC)[C@H](C)O4)O3)O2)[C@H](C)C[C@@H]1C [Salinomycin Sodium] reads 1

The measured lowest phenotypically active concentration associated with CC(C)(C)c1cc(C=C(C#N)C#N)cc(C(C)(C)C)c1O [Malonoben] reads 1

The measured lowest phenotypically active concentration associated with C=C1[C@@H](C)[C@H]2[C@H](Cc3ccccc3)NC(=O)[C@]23OC(=O)C=C[C@H](O)CCC[C@@H](C)CC=C[C@H]3[C@@H]1O [Cytochalasin B] reads 1

The measured lowest phenotypically active concentration associated with C[C@@]12C(=O)OC(=O)[C@]1(C)[C@H]1CC[C@@H]2O1 [Cantharidin] reads 3

The measured lowest phenotypically active concentration associated with O=C(NCCN1CCC2(CC1)C(=O)NCN2c1cccc(F)c1)c1ccc(F)c(F)c1 [ML 298 hydrochloride] reads 9
